Cited source: ChEMBL document CHEMBL4513216

Tested on: Plasmodium berghei
Test: Screen against P. berghei liver stage (PbLuc), transformed with Luciferase, at 10uM
Assay type: functional, HepG2
Details: tested at 10 uM
Out of some 69,000 compounds screened, about 8,600 (12%) showed an effect of 50% or more. The list comes from a sample in which strong results are over-represented; it also holds close analogues and randomly drawn compounds.
Assign Satisfied to entries whose INHIBITION meets or exceeds 20%; assign Not satisfied to the rest.

Cc1nc(CN(C)C2CCCN(Cc3noc(C4CC4)n3)C2)oc1C (stereo not given)
Satisfied
CC(C)c1nccn1Cc1cc(C(=O)NCC(F)(F)F)n[nH]1
Satisfied
CCCc1nc(N[C@H]2COC[C@@H]2N2CCCC2)c2cnn(C)c2n1
Satisfied
Cc1cc(C(F)(F)F)nc(CCNc2nc(C)nc3c2cnn3C)n1
Not satisfied

Q) Could you please find out whether c1ccc(N2CCC3(CCCN(c4ncccn4)C3)C2)nc1 (stereo not given) has INHIBITION that meets 20% or exceeds it?
A) Not satisfied
